Biological target: LRRK2 kinase (Homo sapiens, UniProt Q5S007)
Sequence (Q5S007 with tags, fused parts or gaps): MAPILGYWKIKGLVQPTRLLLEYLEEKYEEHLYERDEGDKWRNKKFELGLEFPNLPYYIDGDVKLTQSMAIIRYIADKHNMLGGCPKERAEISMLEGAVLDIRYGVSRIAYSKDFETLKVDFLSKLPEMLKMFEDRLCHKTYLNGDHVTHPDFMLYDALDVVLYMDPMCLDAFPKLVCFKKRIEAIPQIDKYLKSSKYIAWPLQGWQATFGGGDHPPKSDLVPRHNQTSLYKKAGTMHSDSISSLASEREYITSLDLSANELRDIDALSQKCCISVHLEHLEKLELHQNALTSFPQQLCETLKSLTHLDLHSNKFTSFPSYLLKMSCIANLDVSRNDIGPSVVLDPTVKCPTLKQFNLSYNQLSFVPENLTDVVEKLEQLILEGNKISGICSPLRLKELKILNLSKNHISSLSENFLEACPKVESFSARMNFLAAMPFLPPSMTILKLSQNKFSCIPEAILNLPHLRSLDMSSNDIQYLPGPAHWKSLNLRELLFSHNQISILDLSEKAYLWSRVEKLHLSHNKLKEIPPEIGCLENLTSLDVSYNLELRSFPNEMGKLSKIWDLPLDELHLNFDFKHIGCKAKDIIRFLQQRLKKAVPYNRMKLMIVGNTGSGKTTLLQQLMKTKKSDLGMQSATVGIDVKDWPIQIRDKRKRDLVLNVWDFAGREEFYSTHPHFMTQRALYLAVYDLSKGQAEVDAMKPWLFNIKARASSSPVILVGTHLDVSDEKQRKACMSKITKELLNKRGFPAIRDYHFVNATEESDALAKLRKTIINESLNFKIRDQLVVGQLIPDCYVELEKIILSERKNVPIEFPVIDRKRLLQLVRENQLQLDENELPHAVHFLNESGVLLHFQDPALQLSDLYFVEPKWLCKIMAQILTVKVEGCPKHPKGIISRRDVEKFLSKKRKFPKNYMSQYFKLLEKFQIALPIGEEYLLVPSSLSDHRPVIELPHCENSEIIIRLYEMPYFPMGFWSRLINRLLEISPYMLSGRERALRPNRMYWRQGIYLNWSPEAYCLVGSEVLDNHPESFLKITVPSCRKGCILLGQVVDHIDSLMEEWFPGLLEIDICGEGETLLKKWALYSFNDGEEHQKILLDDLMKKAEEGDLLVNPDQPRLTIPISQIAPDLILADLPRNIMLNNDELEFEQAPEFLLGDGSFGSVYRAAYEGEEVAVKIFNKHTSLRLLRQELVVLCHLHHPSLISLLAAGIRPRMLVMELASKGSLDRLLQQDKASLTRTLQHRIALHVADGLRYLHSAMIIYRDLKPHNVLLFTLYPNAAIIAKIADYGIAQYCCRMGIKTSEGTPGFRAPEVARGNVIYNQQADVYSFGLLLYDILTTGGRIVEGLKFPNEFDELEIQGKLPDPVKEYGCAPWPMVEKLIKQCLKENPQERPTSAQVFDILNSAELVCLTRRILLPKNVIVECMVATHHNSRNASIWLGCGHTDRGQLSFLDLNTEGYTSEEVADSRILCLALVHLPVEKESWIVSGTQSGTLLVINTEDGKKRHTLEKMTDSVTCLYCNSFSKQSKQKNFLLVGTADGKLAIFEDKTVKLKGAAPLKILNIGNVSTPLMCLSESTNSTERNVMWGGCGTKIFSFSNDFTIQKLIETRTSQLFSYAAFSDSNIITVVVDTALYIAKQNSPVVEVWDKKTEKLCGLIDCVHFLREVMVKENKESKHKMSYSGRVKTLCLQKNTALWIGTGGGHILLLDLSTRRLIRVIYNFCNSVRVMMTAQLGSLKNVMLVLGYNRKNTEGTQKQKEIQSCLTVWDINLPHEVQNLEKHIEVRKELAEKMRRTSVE
pIC50: −log10 of the molar value.
This listing pairs molecules with measured pIC50.

(Q) Please give the measured pIC50 for this molecule: CC/C(Nc1cnn(C)c1)=C1/C(=O)Nc2ccc(C(=O)NC[C@H]3CCCO3)cc21 [Example 55]
(A) 6.52 to 7.00

(Q) CC/C(Nc1cnn(C(C)C)c1)=C1/C(=O)Nc2ccc(C(=O)NCC(C)(C)F)cc21 [Example 135] , same question.
(A) 6.52 to 7.00

----------
Entries and their IC50 values follow.
Molecular target: ULK1 kinase (Homo sapiens, UniProt O75385, E37A/K38A)
Construct: (residues 1-283; ID NO: 1)
Sequence (O75385 1-283 E37A/K38A): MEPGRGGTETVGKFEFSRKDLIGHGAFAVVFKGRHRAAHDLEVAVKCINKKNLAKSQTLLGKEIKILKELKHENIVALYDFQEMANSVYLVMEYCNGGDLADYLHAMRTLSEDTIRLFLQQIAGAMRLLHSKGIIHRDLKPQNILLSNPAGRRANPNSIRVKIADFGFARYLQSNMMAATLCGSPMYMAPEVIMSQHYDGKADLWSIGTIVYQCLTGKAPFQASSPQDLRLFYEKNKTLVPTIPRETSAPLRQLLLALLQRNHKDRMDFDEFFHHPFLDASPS
Assay: Biochemical assay for ULK1 (coupled pyruvate kinase/lactate dehydrogenase assay)
Conditions: 1 mM ATP, 0.1 nM ULK1; read-out: ULK1 (inhibition of biochemical activity), IC50

(Q) Could you share which IC50 value was measured for CC/C(Nc1cnn(C(C)C)c1)=C1/C(=O)Nc2ccc(C(=O)NCC3(C(F)(F)F)CC3)cc21 ?
(A) ≤ 10 nM

Further cases:
(Q) Name the reported IC50 value associated with the compound CC/C(Nc1cnn(C2CCN(C3COC3)CC2)c1)=C1/C(=O)Nc2ccc(C(=O)NCC(C)C)cc21
(A) ≤ 10 nM

(Q) Follow-up item: CC/C(Nc1cc(C(F)(F)F)ccn1)=C1/C(=O)Nc2ccc(C(=O)NCC(F)(F)F)cc21
(A) 10 to 100 nM

(Q) Now try CC/C(Nc1ccc(N2CC3(CN(C)C3)C2)cc1)=C1/C(=O)Nc2ccc(C(=O)NCC(C)C)cc21 .
(A) ≤ 10 nM

(Q) What would you report for CC/C(Nc1cnn(C(F)(F)F)c1)=C1/C(=O)Nc2ccc(C(=O)NCC(F)(F)F)cc21 ?
(A) 10 to 100 nM

(Q) Please answer likewise for CC/C(Nc1cnn(C(C)C)c1)=C1/C(=O)Nc2ccc(C(=O)NCC(F)(F)F)cc21
(A) ≤ 10 nM

(Q) Query CC/C(Nc1cnn(C(F)F)c1)=C1/C(=O)Nc2ccc(C(=O)NCC3(C(F)(F)F)CC3)cc21 next
(A) ≤ 10 nM

----------
IC50 values by entry
Test system: ULK kinase substrate ATG13 (pS318-ATG13) in MiaPaCa-2 cells
Test: pATG13 levels of mutant KRas MiaPaCa-2 cells after treatment with ULK inhibitors in combination with trametinib (ELISA)
Assay type: cell-based, human

(Q) May I ask what IC50 has been recorded for CC/C(Nc1cnn(C(C)C)c1)=C1/C(=O)Nc2ccc(C(=O)NCC3CC(F)(F)C3)cc21 ?
(A) ≤ 100 nM

(Q) Check CC/C(Nc1ccc(N2CC3CC2CN3C)cc1)=C1/C(=O)Nc2ccc(C(=O)NC[C@H]3CCCO3)cc21 (stereo partly shown) too.
(A) ≤ 100 nM

(Q) Please give the result for CC/C(Nc1ccc(N2CCN(C)CC2)nc1)=C1/C(=O)Nc2ccc(C(=O)NCC(F)(F)F)cc21 too.
(A) ≤ 100 nM

(Q) Now give it for CC/C(Nc1cnn(C(F)F)c1)=C1/C(=O)Nc2ccc(C(=O)NCC(F)(F)F)cc21 too.
(A) ≤ 100 nM

(Q) Item: CC/C(Nc1cnn(C(C)C)c1)=C1/C(=O)Nc2ccc(C(=O)NCC(C)(C)OC)cc21
(A) 100 to 300 nM

(Q) Now consider CC/C(Nc1ccc(N2CCN(C(C)C)CC2)cn1)=C1/C(=O)Nc2cc(F)c(C(=O)NCC(F)(F)F)cc21 .
(A) ≤ 100 nM

(Q) Please answer likewise for CC/C(Nc1cccnc1)=C1/C(=O)Nc2ccc(C(=O)NCC(F)(F)F)cc21
(A) 300 to 600 nM

----------
Molecular target: ULK1 kinase (Homo sapiens, UniProt O75385, E37A/K38A)
Construct: (residues 1-283; ID NO: 1)
Assay: Biochemical assay for ULK1 (coupled pyruvate kinase/lactate dehydrogenase assay)
Details: 1 mM ATP, 0.1 nM ULK1; read-out: ULK1 (inhibition of biochemical activity), IC50
PROPERTY_LABEL: IC50

Solved cases (6 shown):
(Q) Need IC50 of CC/C(Nc1cn(C)nc1C)=C1/C(=O)Nc2ccc(C(=O)NCC(F)(F)F)cc21 , thanks.
(A) > 500 nM

(Q) Cool, now CC/C(Nc1cnn(C2COC2)c1)=C1/C(=O)Nc2ccc(C(=O)NCC(F)(F)F)cc21
(A) ≤ 10 nM

(Q) Same again, this time with CC/C(Nc1cnn(C(C)C)c1)=C1/C(=O)Nc2ccc(C(=O)NCC3CCC4(CCC4)O3)cc21 (stereo not drawn)
(A) 10 to 100 nM

(Q) // query: CC/C(Nc1ccc(N2CC3(CN(C)C3)C2)cc1)=C1/C(=O)Nc2ccc(C(=O)NC[C@H]3CCCO3)cc21
(A) ≤ 10 nM

(Q) Now consider CC/C(Nc1cnn(C2CCN(C(C)C)CC2)c1)=C1/C(=O)Nc2ccc(C(=O)NCC(C)C)cc21 .
(A) ≤ 10 nM

(Q) Moving on to CC/C(Nc1ccc(N2CCN(C)CC2)cn1)=C1/C(=O)Nc2ccc(C(=O)NCC(F)(F)F)cc21
(A) ≤ 10 nM

***
(Q) # IC50 lookup, item CC/C(Nc1cnn(C2CN(C(C)C)C2)c1)=C1/C(=O)Nc2ccc(C(=O)NC[C@H]3CCCO3)cc21
(A) ≤ 10 nM

(Q) Then CC/C(Nc1ccc(N2CC3CC2CN3C)cc1)=C1/C(=O)Nc2ccc(C(=O)NCC(C)C)cc21 (stereo not drawn) ?
(A) ≤ 10 nM

(Q) Thanks! And CC/C(Nc1cnn(C2CCN(C3CCOC3)CC2)c1)=C1/C(=O)Nc2ccc(C(=O)NCC(C)C)cc21 (stereo not drawn) ?
(A) ≤ 10 nM

(Q) Try CC/C(Nc1cnn(C2CCN(C(C)C)CC2)c1)=C1/C(=O)Nc2ccc(C(=O)N(C)CCOC)cc21 next.
(A) 10 to 100 nM

(Q) Field entry: CC/C(Nc1cnn(C(C)C)c1)=C1/C(=O)Nc2ccc(C(C)=O)cc21
(A) 100 to 500 nM

(Q) Lookup CC/C(Nc1cnn(C2CCN(C(C)C)CC2)c1)=C1/C(=O)Nc2ccc(C(=O)NC[C@H]3CC(F)(F)CO3)cc21
(A) ≤ 10 nM

(Q) Next record, please: CC/C(Nc1cnn(CC)c1)=C1/C(=O)Nc2ccc(C(=O)NCC3(F)CC3)cc21
(A) ≤ 10 nM

(Q) Request: CC/C(Nc1cn(C(C)C)nn1)=C1/C(=O)Nc2ccc(C(=O)NCC(F)(F)F)cc21
(A) 10 to 100 nM

(Q) And the next one, CC/C(Nc1cnn(C2CCN(C3CCCC3)CC2)c1)=C1/C(=O)Nc2ccc(C(=O)NCC(C)C)cc21 ?
(A) ≤ 10 nM

----------
Lab note: IC50 readings collected with ULK2 kinase (Homo sapiens) for the following compounds.
Sequence (Q8IYT8 with tags, fused parts or gaps): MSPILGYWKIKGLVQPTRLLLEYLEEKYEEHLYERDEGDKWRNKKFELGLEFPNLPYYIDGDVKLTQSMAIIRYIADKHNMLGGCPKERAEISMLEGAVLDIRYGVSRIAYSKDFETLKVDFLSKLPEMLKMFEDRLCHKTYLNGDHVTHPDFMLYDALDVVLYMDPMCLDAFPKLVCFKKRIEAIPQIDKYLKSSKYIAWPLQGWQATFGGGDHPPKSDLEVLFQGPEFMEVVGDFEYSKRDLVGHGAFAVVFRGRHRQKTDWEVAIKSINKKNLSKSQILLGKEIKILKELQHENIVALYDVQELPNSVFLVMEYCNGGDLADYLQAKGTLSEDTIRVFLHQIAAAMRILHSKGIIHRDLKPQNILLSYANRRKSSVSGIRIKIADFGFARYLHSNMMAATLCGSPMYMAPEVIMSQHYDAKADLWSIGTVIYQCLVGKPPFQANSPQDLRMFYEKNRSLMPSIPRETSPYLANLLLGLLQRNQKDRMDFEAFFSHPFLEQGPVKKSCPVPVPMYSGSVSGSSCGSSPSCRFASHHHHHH

A selection of reference data follows.
(Q) Report IC50 for CC/C(Nc1cnn(C(C)C)c1)=C1/C(=O)Nc2ccc(C(=O)NCCC(F)(F)F)cc21 please.
(A) ≤ 10 nM

(Q) Entry CC/C(Nc1cn(C)nc1C)=C1/C(=O)Nc2ccc(C(=O)NCC(F)(F)F)cc21 please
(A) > 500 nM

(Q) Then this compound: CC/C(Nc1cnn(C2CCN(C(C)C)CC2)c1)=C1/C(=O)Nc2ccc(C(=O)NCCC(F)(F)F)cc21
(A) ≤ 10 nM

# context switch: different compound, same IC50
(Q) Quick one: IC50 of CC/C(Nc1nc(C)co1)=C1/C(=O)Nc2ccc(C(=O)NCC(F)(F)F)cc21 ?
(A) > 500 nM

----------
Tested on: ULK kinase substrate ATG13 (pS318-ATG13) in MiaPaCa-2 cells
Test: pATG13 levels of mutant KRas MiaPaCa-2 cells after treatment with ULK inhibitors in combination with trametinib (ELISA)
Assay type: cell-based, human
Description: pATG13 Levels of Mutant KRas MiaPaCa-2 Cells after Treatment with ULK Inhibitors in Combination with Trametinib […] Cellular levels of phospho-Serine 318 ATG13 (pATG13) were measured via an ELISA method. […] The plate was analyzed at on a plate reader measuring absorbance at 450 nm and 540 nm (background). Signal was calculated by first subtracting the background absorbance at 540 nm from the absorbance at 450 nm for each well. […]
PROPERTY_LABEL: IC50

(Q) For the compound shown here, CC/C(Nc1cnn(C2CCN(C(C)C)CC2)c1)=C1/C(=O)Nc2ccc(C(=O)NCC(C)(C)OC)cc21 , give the reported IC50.
(A) ≤ 100 nM

(Q) What about CC/C(Nc1cnn(C(C)C)c1)=C1/C(=O)Nc2ccc(C(=O)NCC3CCC(C)(C)O3)cc21 (stereo not shown) ?
(A) 100 to 300 nM

(Q) Can you handle CC/C(Nc1cnn(C2CCN(C(C)C)CC2)c1)=C1/C(=O)Nc2ccc(C(=O)NC[C@H]3CCCO3)cc21 next?
(A) ≤ 100 nM

(Q) Let us now turn to CC/C(Nc1cnn(C2CCN(C3CCCCC3)CC2)c1)=C1/C(=O)Nc2ccc(C(=O)NCC(C)C)cc21
(A) ≤ 100 nM

(Q) Another compound: CC/C(Nc1cnn(C(F)(F)F)c1)=C1/C(=O)Nc2ccc(C(=O)NCC(C)C)cc21
(A) 100 to 300 nM

Further cases:
(Q) Reported IC50 for CC/C(Nc1cnn(CC(F)(F)F)c1)=C1/C(=O)Nc2ccc(C(=O)NCC(C)(C)F)cc21 : what is it?
(A) ≤ 100 nM

(Q) Would you mind doing CCCNC(=O)c1ccc2c(c1)/C(=C(\CC)Nc1cnn(C3CCN(C(C)C)CC3)c1)C(=O)N2 as well?
(A) ≤ 100 nM

(Q) Next compound up: CC/C(Nc1cnn(C2CCN(C(C)C)CC2)c1)=C1/C(=O)Nc2ccc(C(C)=O)cc21
(A) ≤ 100 nM

(Q) Next compound up: CC/C(Nc1cnn(C2CCN(C3COC3)CC2)c1)=C1/C(=O)Nc2ccc(C(=O)NCC(C)C)cc21
(A) ≤ 100 nM

(Q) How about CC/C(Nc1cnn(C2CC3CCC(C2)N3C)c1)=C1/C(=O)Nc2ccc(C(=O)NC[C@H]3CCCO3)cc21 (stereo partly shown) ?
(A) ≤ 100 nM

(Q) And what about the compound CC/C(Nc1cnn(C(C)C)c1)=C1/C(=O)Nc2ccc(C(=O)N[C@H](C)C(F)(F)F)cc21 ?
(A) ≤ 100 nM

(Q) How about this compound: CC/C(Nc1ccc(N2C[C@H]3CN(C)C[C@H]3C2)cc1)=C1/C(=O)Nc2ccc(C(=O)NCC(C)C)cc21
(A) ≤ 100 nM

(Q) Okay, and CC/C(Nc1cnn(C2CCN(C3CCOC3)CC2)c1)=C1/C(=O)Nc2ccc(C(=O)NCC(C)C)cc21 (stereo not shown) ?
(A) ≤ 100 nM

Where these numbers come from: patent US20240150368A1
